# Tested on: SF-268 CNS
# assay.text: NCI-60 one-dose screen, 48 h (100 = growth as untreated, 0 = no growth, -100 = all killed)
# experimental.parameters: 10 µM unless noted
This is part of a sample that, as a whole, favours compounds with a hit. Of some 83,000 tested, about 20% had one in any assay. The source made the active and inactive calls. Rule for the calls: active = growth percent below 10; inactive = the rest.
property: growth

Answered cases to consult:
> print(dat)
                                    compound   recorded.result
 1  COc1cc(OC)c2c(c1Cl)O[C@]1(C2=O)C(OCc2ccccc2)=CC(=O)C[C@H]1C  21.3% (inactive)
 2  Cc1ccc(N/N=C(/C(=O)c2ccc(Cl)cc2)c2nc(C)cc(=O)[nH]2)cc1   107% (inactive)
 3          O=Nc1c2cccnc2n2nnc3ccc(Cl)cc3c12  48.7% (inactive)
 4  COc1ccc2c(c1)CC/C(=C\c1ccc(OCC(=O)Nc3nc4ccccc4s3)cc1)C2=O  89.6% (inactive)
 5  c1ccc(N2c3nc4ccccc4cc3Sc3cc4ccccc4nc32)nc1  80.8% (inactive)
 6  CCOC(=O)C1C(=O)NC(C(=O)OCC)(C(=O)OCC)C1CC (stereo unspecified)   108% (inactive)
 7                 Cc1cccc2nnc(-c3ccccc3)n12   111% (inactive)
 8  CC[C@@H](c1ccc(O)c(O)c1)[C@@H](CC)c1ccc(O)c(O)c1    98% (inactive)
 9  OCCCc1n(Cc2ccc3ccccc3c2)c2ccccc2[n+]1Cc1ccc2ccccc2c1  22.5% (inactive)
10  CC(NC(=O)Oc1cccc2ccccc12)c1ccccc1 (stereo unspecified)  78.1% (inactive)

# context switch: different compound, same growth
Measured growth for this entry CC(=O)Nc1cc(C(c2ccccc2)c2ccccc2)cc(C(c2ccccc2)c2ccccc2)c1C on SF-268 CNS: 53.5% (inactive)
